# protocol.text: wn = mass fraction of the nth substance listed
# measurement.conditions: 303.15 K, Pendant drop shape, w1 = 0.1
result.type: surface tension liquid-gas (mN/m)

Recorded surface tension liquid-gas of [Br-].[K+] [potassium bromide] + O , please. 73.05

I have this molecule here, [Br-].[Na+] [sodium bromide] + O , and I need its recorded surface tension liquid-gas. 73.5

Param item = [I-].[K+] [potassium iodide] + O ; retrieve measured surface tension liquid-gas. 78

Which value of surface tension liquid-gas has been reported for [I-].[Na+] [sodium iodide] + O in the records? 72.22

GET /values?readout=surface tension liquid-gas&item= [Cl-].[Na+] [sodium chloride] + O 74.17

Entry under review: [Cl-].[K+] [potassium chloride] + O . Reported surface tension liquid-gas? 73.68
